- targetUnderTest: T1, Human EphA2 (Human, UniProt P29317 24-537, limits assumed, biotinylated, 0.95 mol biotin/monomer)
- T1 construct: also called Eph receptor tyrosine kinase A2
- T1 sequence (P29317 24-537 limits assumed): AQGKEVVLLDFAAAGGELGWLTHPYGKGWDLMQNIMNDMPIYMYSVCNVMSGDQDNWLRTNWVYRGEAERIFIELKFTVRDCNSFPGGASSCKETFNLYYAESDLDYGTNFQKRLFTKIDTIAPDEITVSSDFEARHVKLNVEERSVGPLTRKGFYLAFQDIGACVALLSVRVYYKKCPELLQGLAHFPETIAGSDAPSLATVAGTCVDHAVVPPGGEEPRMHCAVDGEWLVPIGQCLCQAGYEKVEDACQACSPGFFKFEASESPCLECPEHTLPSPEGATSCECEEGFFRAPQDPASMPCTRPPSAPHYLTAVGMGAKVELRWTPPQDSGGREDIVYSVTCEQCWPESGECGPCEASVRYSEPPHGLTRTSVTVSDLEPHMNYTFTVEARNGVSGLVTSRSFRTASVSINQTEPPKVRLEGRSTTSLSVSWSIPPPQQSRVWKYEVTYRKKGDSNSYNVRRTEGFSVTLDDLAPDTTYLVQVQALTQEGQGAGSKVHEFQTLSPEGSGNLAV
- assaySummary: SPR, biotinylated EphA2 on streptavidin chip
*1 amine or outer side, *2 acyl side, *3 side chain or, on linkers, in order; H or OH if unused. Bridges are numbered along the chain shown (N, C = ends). Where no end group is shown, it is not given here. TATA = O=C(CC[*:1])N1CN(C(=O)CC[*:2])CN(C(=O)CC[*:3])C1
Measured t1/2 values are reported for all entries that follow.
propertyName: t1/2 (min)

binder	propertyName	measuredNumber
ACPLVNPLCLHPGWSCRGQ (linker 2-9-16 via TATA, Bicyclic peptide on a TATA scaffold, no toxin; Made on Rink amide resin; also called Compound 87; Bicycle Compound Number 87) [BCY6026]	t1/2	11.3
AXDCPLVNPLCLHPGWTC (not fully specified; N-terminal (β-Ala)-Sar10 spacer precedes SEQ ID NO: 11; HArg (homoarginine) at residue 2 of SEQ ID NO: 11; three Cys cyclised on the TATA scaffold; TrpCit-MMAE (MMAE-PABC-Cit-Trp-glutarate) on the N-terminal amine) [BCY6034]	t1/2	3.2
AXDCPLVNPLCLHPGWTC (not fully specified; N-terminal (β-Ala)-Sar10 spacer precedes SEQ ID NO: 11; HArg (homoarginine) at residue 2 of SEQ ID NO: 11; three Cys cyclised on the TATA scaffold; DM1-SS- (DM1-SPDB) on the N-terminal amine) [BCY6031]	t1/2	2.3
AXDCPLVNPLCLHPGWTC (not fully specified; N-terminal (β-Ala)-Sar10 spacer precedes SEQ ID NO: 11; HArg (homoarginine) at residue 2 of SEQ ID NO: 11; three Cys cyclised on the TATA scaffold; ValCit-MMAE (MMAE-PABC-Cit-Val-glutarate) on the N-terminal amine) [BCY6033]	t1/2	3.5
AXDCPLVNPLCLHPGWTC (not fully specified; N-terminal (β-Ala)-Sar10 spacer precedes SEQ ID NO: 11; HArg (homoarginine) at residue 2 of SEQ ID NO: 11; three Cys cyclised on the TATA scaffold; DM1-SS(SO3H)- (DM1-SO3H-SPDB) on the N-terminal amine) [BCY6082]	t1/2	4.8
AXDCPLVNPLCLHPGWTC (not fully specified; N-terminal (β-Ala)-Sar10 spacer precedes SEQ ID NO: 11; HArg (homoarginine) at residue 2 of SEQ ID NO: 11; three Cys cyclised on the TATA scaffold; DM1-SS-(Me)- (DM1-SPP) on the N-terminal amine) [BCY6032]	t1/2	2.2

Values compiled from patent US20240000957A1.
